- Subject of test: Adenosine receptor A3 (Homo sapiens, UniProt P0DMS8)
- Sequence (P0DMS8 whole entry): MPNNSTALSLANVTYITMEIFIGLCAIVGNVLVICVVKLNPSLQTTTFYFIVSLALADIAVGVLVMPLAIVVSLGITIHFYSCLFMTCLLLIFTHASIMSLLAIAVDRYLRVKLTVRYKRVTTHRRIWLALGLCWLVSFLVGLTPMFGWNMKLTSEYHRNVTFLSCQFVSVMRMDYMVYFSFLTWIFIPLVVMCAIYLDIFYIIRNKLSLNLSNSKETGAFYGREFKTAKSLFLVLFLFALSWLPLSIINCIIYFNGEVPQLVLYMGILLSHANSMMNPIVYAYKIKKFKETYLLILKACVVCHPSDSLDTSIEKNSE
Property name: pKi
// scale note: pKi = -log10(conc_M); give the bare number

Query: // lookup pKi for `Nc1nc2ccc(Cl)cc2c2nc(-c3ccco3)nn12`
Response: 7.02
